test system: P. falciparum; assay: Anti-Plasmodium activity: viability of P. falciparum cultures (pLDH enzyme assay); assay type: cell-based; settings: strain line ItG, 72 hr incubation, pLDH assay, mean of four determinations ± standard error, read-out: IC50 (μM) P. falciparum
Classify on IC50 using zone 1: < 0.009 µM; zone 2: ≥ 0.009 µM and < 3 µM; zone 3: ≥ 3 µM

# count of solved cases: 7
• c1ccc(Cn2cc[n+](Cc3ccccc3)c2)cc1 [QT68, 1,3-Dibenzylimidazolium bromide] = zone 3
• C[n+]1ccn(CCCCCCCCCCCCCn2cc[n+](C)c2)c1 [QT109] = zone 1
• C[n+]1ccn(CCCCCCCCCCCCCCCn2cc[n+](C)c2)c1 [QT101] = zone 1
• Cn1c[n+](C)c(-c2ccccc2)c1-c1ccccc1 [QT104] = zone 3
• Cn1cc[n+](C)c1 [QT70, 1,3-Dimethylimidazolium iodide] = zone 3
• Clc1ccccc1Cn1cc[n+](Cc2ccccc2Cl)c1 [QT90] = zone 2
• Brc1ccc(C[n+]2ccn(Cc3ccccc3)c2)cc1 [QT75] = zone 2

Please classify: O=[N+]([O-])c1ccc(Cn2cc[n+](Cc3ccc([N+](=O)[O-])cc3)c2)cc1 [QT85]
zone 3
